experiment: Selectivity index, ratio of IC50 for rat L6 cells to IC50 for Trypanosoma cruzi Tulahuen C2C4; format: toxicity, cell-based; conditions: read-out: Ratio IC50
Listed molecules paired with reported selectivity ratio

Completed entries (count: 5):
CC(C)NC(=N)c1ccc(-c2cccc(-c3ccc(C(=N)NC(C)C)cc3)c2)cc1.Cl.Cl    < 1
N=C(N)c1ccc(-c2cc(Cl)cc(-c3cccc(C(=N)N)c3)c2)cc1    < 1
CO/N=C(\N)c1ccc(-c2cccc(-c3ccc(/C(N)=N\OC)cn3)c2)nc1.Cl    > 1
CC(C)NC(=N)c1cccc(-c2cccc(-c3cccc(C(=N)NC(C)C)c3)c2)c1    > 1
CO/N=C(/N)c1ccc(-c2cccc(-c3ccc(/C(N)=N\OC)cc3)c2)cc1.Cl.Cl    < 1

Now consider the entry below.
q: Assign selectivity ratio to the following record: `Cl.Cl.N/C(=N\O)c1cccc(-c2cccc(-c3cccc(/C(N)=N\O)c3)c2)c1`
a: < 1

Cited source: ChEMBL document CHEMBL2396601
